- Tested on: HCT-15 colon
- ASSAY METHOD TEXT: NCI tumour cell line growth inhibition, 48 h
MEASURED ATTRIBUTE: TGI

COMPOUND	TESTED TARGET	VAL
O=C(NNC1=NS(=O)(=O)c2ccccc2N1c1ccccc1)c1cnccn1	HCT-15 colon	> 100 µM
Fc1ccc(C2CC(c3cccc(Nc4ccncc4)c3)=NN2c2ccccc2)cc1 (centres undefined)	HCT-15 colon	3.49 µM
COc1ccc(NCc2cccc3c(=O)c4ccc(Cl)cc4oc23)cc1	HCT-15 colon	> 100 µM
COc1ccc(/C=N/NS(=O)(=O)c2ccc(/C=C3\NC(=O)NC3=O)cc2)cc1	HCT-15 colon	> 100 µM
Nc1ncc(-c2ccc3ncnc(N4CCc5cc(F)c(Cl)cc54)c3c2)cc1C=O	HCT-15 colon	> 100 µM
OC(Cc1cnnc2ccccc12)C(Cl)(Cl)Cl (centres undefined)	HCT-15 colon	> 10 µM
C[C@H]1[C@H]2[C@H](C[C@@]3(C)C4=CC[C@H]5C(C)(C)[C@@H](OC6OCC(O)C(O)C6O)CC[C@@]56C[C@@]46CC[C@]23C)O[C@@]2(O)[C@@H]1OC(C)(C)[C@H]2O (some centres undefined)	HCT-15 colon	3.43 µM
Cc1cc(C(O)CCCc2ccccc2)cc(C)c1O (centres undefined)	HCT-15 colon	> 100 µM
CC(=O)OC[C@@]1(C)[C@@H]2[C@@H]3[C@@]4(CO[C@]3(C)C(=O)[C@@]3(OC(C)=O)C[C@H](C)[C@H](OC(C)=O)[C@@H]3[C@H]4OC(C)=O)[C@H](OC(=O)c3ccccc3)C[C@@H]21	HCT-15 colon	> 100 µM
